# target entity: HNF4alpha2 (COS-7 nuclear extract) (Homo sapiens, UniProt P41235 1-474)
# Sequence: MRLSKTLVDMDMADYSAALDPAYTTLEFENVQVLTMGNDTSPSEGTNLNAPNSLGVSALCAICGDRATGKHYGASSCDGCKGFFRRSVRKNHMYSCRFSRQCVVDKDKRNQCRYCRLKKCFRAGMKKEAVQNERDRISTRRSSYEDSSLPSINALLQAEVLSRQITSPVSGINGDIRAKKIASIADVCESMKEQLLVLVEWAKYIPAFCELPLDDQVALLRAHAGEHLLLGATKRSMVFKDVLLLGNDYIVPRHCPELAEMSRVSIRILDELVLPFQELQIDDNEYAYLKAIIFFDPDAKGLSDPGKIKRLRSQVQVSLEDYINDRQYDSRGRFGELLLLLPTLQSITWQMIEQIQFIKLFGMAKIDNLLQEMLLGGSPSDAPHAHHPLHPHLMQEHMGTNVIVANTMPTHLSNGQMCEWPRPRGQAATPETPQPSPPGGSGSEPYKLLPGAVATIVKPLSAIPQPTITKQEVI
# method summary: protein-binding microarray; COS-7 nuclear extract on double-stranded Agilent 4x180k PBM; binding buffer, salt, pH and temperature not given in the material; high values mean tight binding
# test parameters: chain copies: 2; label: 3' end of strand 1 on the slide; dsDNA, one strand shown
The full ranking holds about 18,000 sequences; the median of “log2 normalized intensity” is about 0.39, and the highest 2% start at about 6.6. This excerpt belongs to a sample that is enriched for the highest values.
Kindly supply the reported binding signal values for the records listed here.
Give just the number in log2 normalized intensity; leave the unit off.

**Query** Return binding signal for the following sequence: `GTCTGATCTTCCTGAGGAGAGCAAAGATCAGCCTAGGGAGATTAGAGTATCGGTCGA`
**Result** 2.54

**Query** Return binding signal for the following sequence: `ACTTTGGACTTGGGACTTTCGAGTTAATGCGCCTAGGGAGATTAGAGTATCGGTCGA`
**Result** 4.12

**Query** Return binding signal for the following sequence: `CCTTTGGACTGTCCTTTGCTAGATTCTTTCGCCTAGGGAGATTAGAGTATCGGTCGA`
**Result** 2.01

**Query** Return binding signal for the following sequence: `AGCCTACCCACCCACACCTCCCCTTTGTTTGCCTAGGGAGATTAGAGTATCGGTCGA`
**Result** 3.59

**Query** Return binding signal for the following sequence: `GGACTTGGGACTTTCGAGTTAATGCTGGAGGCCTAGGGAGATTAGAGTATCGGTCGA`
**Result** 2.54

**Query** Return binding signal for the following sequence: `CTGGACTTTCCTTTGTTGGGAGACTTTTTAGCCTAGGGAGATTAGAGTATCGGTCGA`
**Result** 1.63

**Query** Return binding signal for the following sequence: `TTTGGACTTTGGACTTGGGACTTTCGAGTTGCCTAGGGAGATTAGAGTATCGGTCGA`
**Result** 7.8

**Query** Return binding signal for the following sequence: `AGCAGTCCCTTCCCCCCTCCTCATTGAGAGGCCTAGGGAGATTAGAGTATCGGTCGA`
**Result** 4.37

**Query** Return binding signal for the following sequence: `TGTTTTTTGCCCTTTGTACCCACACACACCGCCTAGGGAGATTAGAGTATCGGTCGA`
**Result** 6.48

Where do these numbers come from? They come from paper PMC10726135.
